Assay: In vivo PK (cannulated rat, IV and PO)
Conditions: rat, plasma, po, 3 mg/kg, Rat, PO 3 mg/kg (Table 4); read-out: Cmax
Reported endpoint: Cmax (ng/mL)
One number for each entry, in ng/mL.

// lookup Cmax for CC(Nc1ncnc2[nH]cnc12)c1nc2cccc(Cl)c2c(=O)n1-c1ccccc1 (stereo not shown)
456

###

Test: In vivo PK (cannulated rat, IV and PO)
Conditions: rat, plasma, po, 3 mg/kg, PO 3 mg/kg, mean of 3 rats
Reported endpoint: AUC(0-inf) (ng·h/mL)
Give bare numbers, in ng·h/mL.

// lookup AUC(0-inf) for CC(Nc1ncnc2[nH]cnc12)c1nc2cccc(Cl)c2c(=O)n1-c1ccccc1 (stereo not shown) [Compound A]
2010
